- Test target: T1, His-tagged recombinant c-Jun (UniProt P05412 1-331, limits assumed)
- T1 construct: Captured on BLI tips by an anti-his tag antibody; also called c-Jun receptor; c-Jun component of AP-1; not shown: his tag
- T1 sequence (P05412 whole entry): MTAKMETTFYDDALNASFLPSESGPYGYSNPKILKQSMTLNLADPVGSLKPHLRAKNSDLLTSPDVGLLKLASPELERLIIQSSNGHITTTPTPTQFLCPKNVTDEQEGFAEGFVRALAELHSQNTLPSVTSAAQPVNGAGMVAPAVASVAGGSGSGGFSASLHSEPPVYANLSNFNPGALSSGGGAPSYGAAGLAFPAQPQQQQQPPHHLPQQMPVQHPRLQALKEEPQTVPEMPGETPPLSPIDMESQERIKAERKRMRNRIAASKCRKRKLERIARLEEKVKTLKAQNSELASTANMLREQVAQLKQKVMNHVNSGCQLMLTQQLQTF
- Measurement protocol: BLI (Octet), his-tagged c-Jun captured by anti-his antibody, 1:1 model
Where no end group is shown, it is not given here. The star is where a group is joined. Biotin = O=C1N[C@H]2[C@H](CS[C@H]2CCCCC(=O)*)N1
Quantity kind: pKd
pKd is defined as minus the log10 of a concentration measured in mol/L.

Return reported pKd; argument: Biotin-RLQLMARLAEGTGLQIPPAAQQALQMSGSLAFGAVAEFSFVIDLQ (Custom synthesized (LifeTein), crude purity, N-terminal biotin) [CAPER peptide HCC1.4 (amino acid residues 356-400)]
7.59

Return reported pKd; argument: Biotin-RLQLMARLAEGTGLQIPPAAQQALQMSGSLAFGAVADLQTRLSQQ (Custom synthesized (LifeTein), crude purity, N-terminal biotin; A TAT control peptide was run alongside, so the TAT form is possible) [CAPER peptide HCC1.3 (amino acid residues 356-400)]
8.05
